Molecular target: T1, EsCas13d, nuclease-dead (Eubacterium siraeum, UniProt B0MS50, R295A;H300A;R849A;H854A)
T1 sequence: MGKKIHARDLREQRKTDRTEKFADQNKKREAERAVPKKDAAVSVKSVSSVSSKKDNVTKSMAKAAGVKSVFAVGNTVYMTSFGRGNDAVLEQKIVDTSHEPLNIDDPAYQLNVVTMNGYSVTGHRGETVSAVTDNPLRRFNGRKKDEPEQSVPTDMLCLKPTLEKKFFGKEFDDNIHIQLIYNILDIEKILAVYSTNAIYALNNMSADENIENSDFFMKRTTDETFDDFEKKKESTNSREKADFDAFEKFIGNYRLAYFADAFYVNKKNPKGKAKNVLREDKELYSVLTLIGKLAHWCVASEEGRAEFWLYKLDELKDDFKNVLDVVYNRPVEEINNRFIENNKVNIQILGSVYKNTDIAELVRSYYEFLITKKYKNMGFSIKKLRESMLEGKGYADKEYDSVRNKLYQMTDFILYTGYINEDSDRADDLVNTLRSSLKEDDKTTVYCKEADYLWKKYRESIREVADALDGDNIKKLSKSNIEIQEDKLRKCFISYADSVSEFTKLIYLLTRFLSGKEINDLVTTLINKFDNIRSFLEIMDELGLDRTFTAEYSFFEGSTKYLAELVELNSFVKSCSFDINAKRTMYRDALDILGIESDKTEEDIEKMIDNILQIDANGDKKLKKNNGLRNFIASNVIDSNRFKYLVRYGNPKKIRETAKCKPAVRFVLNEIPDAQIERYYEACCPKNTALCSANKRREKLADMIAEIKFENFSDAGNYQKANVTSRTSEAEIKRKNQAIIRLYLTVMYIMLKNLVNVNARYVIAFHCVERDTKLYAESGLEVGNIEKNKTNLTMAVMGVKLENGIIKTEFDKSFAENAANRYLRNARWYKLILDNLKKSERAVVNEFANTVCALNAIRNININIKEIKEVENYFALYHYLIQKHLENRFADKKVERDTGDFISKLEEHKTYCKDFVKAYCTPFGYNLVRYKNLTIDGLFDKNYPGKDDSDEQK
Assay: crRNA (strand 1, pre-loaded); Mg2+; 40 mM Tris-HCl pH 7.5, 150 mM NaCl, 6 mM MgCl2, 1 mM DTT, 0.1% Tween-20, 0.2 mg/ml BSA; 25 C; 10 min per concentration, then washed
Conditions: tags: His6-TwinStrep-SUMO cleaved; N-terminal SNAP kept (SNAP-Surface 488); label: 3' end held by stalled T7 RNA polymerase
result type: Kd (nM)

[[record]]
binder = "target 3 insA 3' of 3,insC 3' of 3 (mixed) RNA 1: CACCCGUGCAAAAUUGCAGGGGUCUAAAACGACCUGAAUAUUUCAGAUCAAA RNA 2: GGGAAUGGAUCCACAUCUACGAAUUCGUUUUUGAUCUGAAAUAUUCAGGACUCUGCAGAUCGGAAGAGCACACGU"
quantitative_result = 22.8

[[record]]
binder = "target 2 MT 5'PFS UAG 3'PFS UGA (mixed) RNA 1: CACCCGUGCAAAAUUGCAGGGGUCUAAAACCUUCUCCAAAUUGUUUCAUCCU RNA 2: GGGAAUGGAUCCACAUCUACGAAUUCUAGAGGAUGAAACAAUUUGGAGAAGUGAAGAUCGGAAGAGCACACGU"
quantitative_result = 4.1

[[record]]
binder = "target 1 C4U,U11G (mixed) RNA 1: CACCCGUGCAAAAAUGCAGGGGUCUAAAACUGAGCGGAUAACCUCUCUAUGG RNA 2: GGGAAUGGAUCCACAUCUACGAAUUCGUACCAUAGAGAGGGUAUCCGUUCACCGAGAUCGGAAGAGCACACGU"
quantitative_result = 21

[[record]]
binder = "target 2 MT 5'PFS UAA 3'PFS UCA (mixed) RNA 1: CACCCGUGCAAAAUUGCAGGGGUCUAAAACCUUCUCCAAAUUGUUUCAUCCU RNA 2: GGGAAUGGAUCCACAUCUACGAAUUCUAAAGGAUGAAACAAUUUGGAGAAGUCAAGAUCGGAAGAGCACACGU"
quantitative_result = 6.8

